Assign inhibition at 500 µM (stock) to each entry below.
# target: thymidine phosphorylase (TP) (Escherichia coli, UniProt P07650)
# Construct: purchased Sigma Aldrich, USA; host or cells: E. coli
# Sequence (P07650 whole entry): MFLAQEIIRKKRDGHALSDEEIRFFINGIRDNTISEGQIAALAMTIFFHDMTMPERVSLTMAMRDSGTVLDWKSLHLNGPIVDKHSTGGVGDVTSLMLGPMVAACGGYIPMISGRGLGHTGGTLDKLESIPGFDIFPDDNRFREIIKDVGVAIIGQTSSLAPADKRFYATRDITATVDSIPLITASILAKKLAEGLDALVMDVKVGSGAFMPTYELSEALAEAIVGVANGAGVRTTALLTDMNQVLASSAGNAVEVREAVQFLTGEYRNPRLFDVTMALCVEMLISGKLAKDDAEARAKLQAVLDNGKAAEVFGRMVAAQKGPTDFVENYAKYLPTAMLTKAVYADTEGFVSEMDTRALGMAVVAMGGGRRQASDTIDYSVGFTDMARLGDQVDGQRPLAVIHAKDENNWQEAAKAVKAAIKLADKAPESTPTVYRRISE
# assay.details: Thymidine phosphorylase inhibition assay (spectrophotometric, 290 nm)
# Format: biochemical, E. coli
# condition.details: 10 μL of test compound (0.5 mM in dimethylsulfoxide) per well; <50% regarded inactive; read-out: Percent Inhibition of thymidine phosphorylase
# Experimental: Since human TP is not commercially available, we used commercially available recombinant TP (expressed in E. coli) enzyme. […] Assay for TP inhibition was performed spectrophotometrically, following the method of Bera et al. with some modifications. […] 20 μL of substrate (1.5 mM) was then added and change in absorbance was recorded after every minute for a total time period of 10 minutes at 290 nm in ELISA plate reader (Spectra Max-340, Molecular Devices, CA, USA). […]

Find the measured inhibition at 500 µM (stock): item O=C(N/N=C/c1ccc(Cl)cc1Cl)c1ccc(O)cc1 , target or system thymidine phosphorylase (TP) (Escherichia coli, UniProt P07650).
20%

Find the measured inhibition at 500 µM (stock): item O=C(N/N=C/c1ccc(O)c(O)c1O)c1ccc(O)cc1 , target or system thymidine phosphorylase (TP) (Escherichia coli, UniProt P07650).
26%

Find the measured inhibition at 500 µM (stock): item O=C(N/N=C/c1c(O)cc(O)cc1O)c1ccc(O)cc1 , target or system thymidine phosphorylase (TP) (Escherichia coli, UniProt P07650).
8%

Find the measured inhibition at 500 µM (stock): item O=C(N/N=C/c1cc(Br)ccc1O)c1ccc(O)cc1 , target or system thymidine phosphorylase (TP) (Escherichia coli, UniProt P07650).
38.6%
